Every entry's value here was drawn from paper PMC10418599.

Test system: SW480 cell line
Assay: Cell metabolism of phenolic compounds (UHPLC-HR-MS analysis of cell media)
Assay type: in vitro ADME, Human
Settings: SW480, 72 h, initial 50 μmol/L
Assign labels as follows, please: Condition met for Concentration of substrate in cell medium below 10 µM; Condition not met for Concentration of substrate in cell medium equal to or exceeding 10 µM.

Illustrative cases are given below, each with its answer.
O=c1c(O)c(-c2ccc(O)c(O)c2)oc2cc(O)cc(O)c12 = Condition not met
O=c1c(O)c(-c2ccc(O[C@@H]3O[C@H](CO)[C@@H](O)[C@H](O)[C@H]3O)c(O)c2)oc2cc(O)cc(O)c12 [Quercetin-4′-O-glucoside, quercetin-4′-O-glucoside] = Condition met
O=C(O)Cc1cccc(O)c1 [3-(3′-Hydroxyphenyl)acetic acid, 3-(3′-hydroxyphenyl)acetic acid] = Condition not met
O=C(O)CCc1cccc(O)c1 [3-(3′-Hydroxyphenyl)propanoic acid, 3-(3′-hydroxyphenyl)propanoic acid] = Condition not met
O=C(O)Cc1ccc(O)c(O)c1 [3-(3′,4′-Dihydroxyphenyl)acetic acid, 3-(3′,4′-dihydroxyphenyl)acetic acid] = Condition not met

// next entry
Task: Is the reported Concentration of substrate in cell medium for O=C(/C=C/c1ccc(O)c(O)c1)OC1CC(O)(C(=O)O)CC(OC(=O)/C=C/c2ccc(O)c(O)c2)C1O (stereo not drawn) strictly below 10 µM?
Output: Condition met

----------
Overview of reported IC50 across a group of compounds:
System: Caco-2 cell line
Experiment: Anti-proliferative assay (MTS cell proliferation assay)
Format: cell-based, Human
Conditions: Homo sapiens; Caco-2, 48 h of incubation; maximum tested concentration 200 μmol/L
Procedure: Human colon cancer Caco-2 and SW480 cell lines were cultured and grown as previously reported. […] Incubation was carried out for 24, 48 and 72 h. […] Cell proliferation was assessed by the MTS assay as previously described. […] The IC50 values were calculated through non-linear regression analysis by plotting the base-10 logarithm of the phenolic compound concentration vs. the percentage of inhibition.

Study these solved cases before continuing.
O=C(O)Cc1cccc(O)c1 [3-(3′-Hydroxyphenyl)acetic acid, 3-(3′-hydroxyphenyl)acetic acid] = > 200 µM
O=C(O)CCc1cccc(O)c1 [3-(3′-Hydroxyphenyl)propanoic acid, 3-(3′-hydroxyphenyl)propanoic acid] = > 200 µM
O=C(O)Cc1ccc(O)c(O)c1 [3-(3′,4′-Dihydroxyphenyl)acetic acid, 3-(3′,4′-dihydroxyphenyl)acetic acid] = 14.7 µM

Alright, here's another compound for you.
Task: Which IC50 reading was recorded for the compound "O=c1c(O)c(-c2ccc(O)c(O)c2)oc2cc(O)cc(O)c12" ?
Output: > 200 µM

----------
Tested on: SW480 cell line
Assay: Cell metabolism of phenolic compounds (UHPLC-HR-MS analysis of cell media)
Assay type: in vitro ADME, Human
Details: SW480, 72 h, substrate 3-O-Caffeoylquinic acid trans 50 μmol/L
Listing of entries alongside the reported Concentration of newly formed metabolite.
Please format your answer as a value with the unit trailing.

O=C(O)/C=C/c1ccc(O)c(O)c1 = 570 ± 10 nM
O=C(/C=C/c1ccc(O)c(O)c1)OC1[C@H](O)CC(O)(C(=O)O)C[C@H]1O (stereo partly drawn) [4-O-Caffeoylquinic acid trans, 4-O-Caffeoylquinic acid] = 12020 ± 240 nM

Task: Fill in: Concentration of newly formed metabolite of "COc1cc(/C=C/C(=O)O[C@@H]2C[C@@](O)(C(=O)O)C[C@@H](O)[C@@H]2O)ccc1O" is ___
Output: 50 ± 0 nM

Task: Which value of Concentration of newly formed metabolite has been reported for COc1cc(/C=C/C(=O)OC2C(O)CC(O)(C(=O)O)CC2O)ccc1O (stereo not drawn) in the records?
Output: 70 ± 0 nM

Task: # query: Concentration of newly formed metabolite of entry COc1cc(/C=C/C(=O)OC2CC(O)(C(=O)O)CC(O)C2O)ccc1O (stereo not drawn)
Output: 170 ± 0 nM

Task: Return reported Concentration of newly formed metabolite; argument: O=C(/C=C/c1ccc(O)c(O)c1)O[C@@H]1C[C@](O)(C(=O)O)C[C@@H](O)[C@H]1O [3-O-Caffeoylquinic acid cis, 3-O-Caffeoylquinic acid]
Output: 3270 ± 170 nM

----------
Tested on: SW480 cell line
Experiment: Cell metabolism of phenolic compounds (UHPLC-HR-MS analysis of cell media)
Assay type: in vitro ADME, Human
Conditions: SW480, 48 h, substrate 3,5-di-O-Caffeoylquinic acid 50 μmol/L
This listing pairs compounds with measured Concentration of newly formed metabolite.
Write the number in nM without appending the unit.

O=C(/C=C/c1ccc(O)c(O)c1)OC1C(O)CC(OC(=O)/C=C/c2ccc(O)c(O)c2)(C(=O)O)CC1O (centres unmarked) = 660
O=C(/C=C/c1ccc(O)c(O)c1)O[C@@H]1[C@H](O)C[C@@](O)(C(=O)O)C[C@H]1OC(=O)/C=C/c1ccc(O)c(O)c1 = 2200
O=C(/C=C/c1ccc(O)c(O)c1)OC1CC(O)(C(=O)O)CC(O)C1OC(=O)/C=C/c1ccc(O)c(O)c1 (centres unmarked) = 8040
O=C(/C=C/c1ccc(O)c(O)c1)OC1[C@H](O)CC(O)(C(=O)O)C[C@H]1O (stereo partly drawn) [4-O-Caffeoylquinic acid trans, 4-O-Caffeoylquinic acid] = 120

Turning to the following compound.
Task: May I ask what Concentration of newly formed metabolite has been recorded for O=C(/C=C/c1ccc(O)c(O)c1)OC1CC(OC(=O)/C=C/c2ccc(O)c(O)c2)(C(=O)O)CC(O)C1O (centres unmarked) ?
Output: 8870

----------
Each entry below lists one item and its recorded Concentration of newly formed metabolite value.
System: SW480 cell line
Assay: Cell metabolism of phenolic compounds (UHPLC-HR-MS analysis of cell media)
Assay type: in vitro ADME, Human
Conditions: SW480, 72 h, substrate Quercetin-3-O-glucoside-4′-O-glucoside 50 μmol/L
Give just the numeric value; nM need not be written.

Task: Looking for the measured Concentration of newly formed metabolite of COc1cc(-c2oc3cc(O)cc(O)c3c(=O)c2O)ccc1O [Isorhamnetin] , can you help?
Output: 10

Task: For COc1ccc(-c2oc3cc(O)cc(O)c3c(=O)c2O)cc1O [4′-O-methylquercetin] , what is its reported Concentration of newly formed metabolite?
Output: 10

Task: Could you tell me which Concentration of newly formed metabolite is on file for O=c1c(O[C@@H]2O[C@H](CO)[C@@H](O)[C@H](O)[C@H]2O)c(-c2ccc(O)c(O)c2)oc2cc(O)cc(O)c12 [Quercetin-3-O-glucoside] ?
Output: 9340

Task: Entry O=c1c(O)c(-c2ccc(O)c(O)c2)oc2cc(O)cc(O)c12 [Quercetin, quercetin] : reported Concentration of newly formed metabolite = ?
Output: 70

----------
System: Caco-2 cell line
Assay: Anti-proliferative assay (MTS cell proliferation assay)
Type: cell-based, Human
Conditions: Caco-2, 48 h of incubation; maximum tested concentration 200 μmol/L
assay-endpoint: IC50 (µM)
Field: numeric (µM). Do not append units.

Task: Write down the reported IC50 of O=C(/C=C/c1ccc(O)c(O)c1)OC1CC(O)(C(=O)O)CC(OC(=O)/C=C/c2ccc(O)c(O)c2)C1O (centres unmarked) [3,5-di-O-Caffeoylquinic acid, 3,5-di-O-caffeoylquinic acid] , test system: Caco-2 cell line.
Output: 27.5

----------
System: SW480 cell line
Assay: Cell metabolism of phenolic compounds (UHPLC-HR-MS analysis of cell media)
Assay type: in vitro ADME, Human
Details: SW480, 24 h, substrate 5-O-Caffeoylquinic acid trans 50 μmol/L
Measured Concentration of newly formed metabolite values are reported for all entries that follow.
// return the numeric value with its unit appended

Below, 4 molecules whose answers are already recorded.
COc1cc(/C=C/C(=O)OC2CC(O)(C(=O)O)CC(O)C2O)ccc1O (stereo not drawn) [3-O-Feruloylquinic acid] = 60 ± 0 nM
COc1cc(/C=C/C(=O)O[C@@H]2C[C@@](O)(C(=O)O)C[C@@H](O)[C@@H]2O)ccc1O [5-O-Feruloylquinic acid] = 10 ± 0 nM
O=C(/C=C/c1ccc(O)c(O)c1)O[C@@H]1C[C@](O)(C(=O)O)C[C@@H](O)[C@H]1O [3-O-Caffeoylquinic acid cis, 3-O-Caffeoylquinic acid] = 410 ± 50 nM
COc1cc(/C=C/C(=O)OC2C(O)CC(O)(C(=O)O)CC2O)ccc1O (stereo not drawn) [4-O-Feruloylquinic acid] = 40 ± 0 nM

Task: # lookup: Concentration of newly formed metabolite of O=C(/C=C/c1ccc(O)c(O)c1)OC1[C@H](O)CC(O)(C(=O)O)C[C@H]1O (stereo partly drawn) [4-O-Caffeoylquinic acid trans, 4-O-Caffeoylquinic acid]
Output: 12690 ± 120 nM

Task: Item under review: COc1cc(/C=C/C(=O)O)ccc1O [Ferulic acid] . Reported Concentration of newly formed metabolite?
Output: 60 ± 20 nM

----------
Tested on: SW480 cell line
Experiment: Cell metabolism of phenolic compounds (UHPLC-HR-MS analysis of cell media)
Format: in vitro ADME, Human
Conditions: SW480, 24 h, substrate 3,5-di-O-Caffeoylquinic acid 50 μmol/L
Label Condition met when Concentration of newly formed metabolite is at or above 3 µM; anything below gets Condition not met.

O=C(/C=C/c1ccc(O)c(O)c1)OC1[C@H](O)CC(O)(C(=O)O)C[C@H]1O (stereo partly drawn) [4-O-Caffeoylquinic acid trans, 4-O-Caffeoylquinic acid] = Condition not met
O=C(/C=C/c1ccc(O)c(O)c1)OC1C(O)CC(OC(=O)/C=C/c2ccc(O)c(O)c2)(C(=O)O)CC1O (centres unmarked) = Condition not met
O=C(/C=C/c1ccc(O)c(O)c1)OC1CC(OC(=O)/C=C/c2ccc(O)c(O)c2)(C(=O)O)CC(O)C1O (centres unmarked) = Condition met
O=C(/C=C/c1ccc(O)c(O)c1)O[C@@H]1[C@H](O)C[C@@](O)(C(=O)O)C[C@H]1OC(=O)/C=C/c1ccc(O)c(O)c1 = Condition met

Task: Check if Concentration of newly formed metabolite >= 3 µM (inclusive). Item: O=C(/C=C/c1ccc(O)c(O)c1)OC1CC(O)(C(=O)O)CC(O)C1OC(=O)/C=C/c1ccc(O)c(O)c1 (centres unmarked)
Output: Condition met
